Test system: E. coli ATCC 25922
Test: Broth microdilution MIC in CAMHB
Type: cell-based
Settings: Escherichia coli, ATCC25922; E. coli ATCC 25922; MHB; read-out: Minimum Inhibitory Concentration, E. coli 25922
This section presents compounds with their documented MIC values.

These solved cases illustrate the format of a correct answer.
NCCN1CCN(C(=O)NC(C(=O)N[C@H]2Cc3cccc(C(=O)O)c3OB2O)c2cc(Cl)c(O)cc2F)C(=O)C1=O (stereo partly drawn): 8 to 16 µg/mL
NS(=O)(=O)NC(C(=O)N[C@H]1Cc2ccc(F)c(C(=O)O)c2OB1O)c1ncc(O)cc1F (stereo partly drawn): > 128 µg/mL

Which value of MIC has been reported for CCN1CCN(C(=O)NC(C(=O)N[C@H]2Cc3cccc(C(=O)O)c3OB2O)c2cc([N+](=O)[O-])c(O)cc2F)C(=O)C1=O (stereo partly drawn) in the records? 32 to 64 µg/mL

---

System: E. coli 901C
Assay: Broth microdilution MIC in CAMHB
Assay type: cell-based
Settings: Escherichia coli; E. coli 901C (hyper-permeable); MHB; read-out: Minimum Inhibitory Concentration, E. coli 901C
This section presents compounds with their documented MIC values.

Which value of MIC has been reported for NS(=O)(=O)Nc1ccc(F)c([C@H](NC(=O)N2CCN(CC(F)(F)F)C(=O)C2=O)C(=O)N[C@H]2Cc3cccc(C(=O)O)c3OB2O)c1 (single isomer, unassigned) in the records? 0.5 to 1 µg/mL

---

Target: E. coli K12 PBP3 (Escherichia coli, UniProt P0AD68)
Sequence (P0AD68 1-577): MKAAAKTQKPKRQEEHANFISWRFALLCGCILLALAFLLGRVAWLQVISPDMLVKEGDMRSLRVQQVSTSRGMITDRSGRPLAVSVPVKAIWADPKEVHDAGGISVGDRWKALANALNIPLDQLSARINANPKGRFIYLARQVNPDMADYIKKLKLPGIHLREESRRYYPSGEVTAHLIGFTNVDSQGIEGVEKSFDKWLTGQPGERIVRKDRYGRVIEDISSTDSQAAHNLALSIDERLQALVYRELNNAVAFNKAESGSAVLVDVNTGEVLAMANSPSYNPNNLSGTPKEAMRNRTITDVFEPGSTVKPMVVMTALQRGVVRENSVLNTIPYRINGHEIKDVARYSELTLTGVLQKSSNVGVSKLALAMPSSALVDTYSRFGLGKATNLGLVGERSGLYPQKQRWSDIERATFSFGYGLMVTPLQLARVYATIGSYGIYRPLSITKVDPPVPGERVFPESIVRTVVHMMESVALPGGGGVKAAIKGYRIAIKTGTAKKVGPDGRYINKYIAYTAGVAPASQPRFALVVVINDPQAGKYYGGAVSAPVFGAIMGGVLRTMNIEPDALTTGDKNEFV
Experiment: biochemical
pEC50: −log10 of the molar value.
endpoint.name: pEC50

Which value of pEC50 has been reported for CS(=O)(=O)N1CCN(C(=O)N[C@@H](C(=O)N[C@H]2Cc3ccc(F)c(C(=O)O)c3OB2O)c2cc(F)c(O)c(O)c2Cl)C1=O (single isomer, unassigned) [Example 189] in the records? > 4.52

// same read-out, input: CCN1CCN(C(=O)NC(C(=O)N[C@H]2Cc3ccc(SCCNCCN)c(C(=O)O)c3OB2O)c2csc(N)n2)C(=O)C1=O (stereo partly shown) [Example 66] < 3.30

// same read-out, input: CCN1CCN(C(=O)NC(C(=O)N[C@H]2Cc3cccc(C(=O)O)c3OB2O)c2c(F)cc(O)cc2Cl)C(=O)C1=O (stereo partly shown) [Example 95] > 4.52

// same read-out, input: NS(=O)(=O)Nc1ccc(F)c(C(NC(=O)N2CCN(CCF)C(=O)C2=O)C(=O)N[C@H]2Cc3cccc(C(=O)O)c3OB2O)c1 (stereo partly shown) [Example 198] > 4.52

---

MIC tested on E. coli AG100A: recorded values

These solved cases illustrate the format of a correct answer.
CCN1CCN(C(=O)NC(C(=O)N[C@H]2Cc3cccc(C(=O)O)c3OB2O)c2cc(F)c(O)cc2Cl)C(=O)C1=O (some centres unmarked): 2 to 4 µg/mL
CCN1CCN(C(=O)NC(C(=O)N[C@H]2Cc3cccc(C(=O)O)c3OB2O)c2c(Cl)cc(C(=O)O)cc2Cl)C(=O)C1=O (some centres unmarked): 32 to 64 µg/mL
CCN1CCN(C(=O)NC(C(=O)N[C@H]2Cc3cccc(C(=O)O)c3OB2O)c2c(F)cc(O)cc2Cl)C(=O)C1=O (some centres unmarked): 0.5 to 1 µg/mL
CCN1CCN(C(=O)NC(C(=O)N[C@H]2Cc3cccc(C(=O)O)c3OB2O)c2cc(C#N)c(O)cc2F)C(=O)C1=O (some centres unmarked): 2 to 4 µg/mL

// next entry
Which value of MIC has been reported for CCN1CCN(C(=O)N[C@H](C(=O)N[C@H]2Cc3cccc(C(=O)O)c3OB2O)c2cc(Cl)c(O)cc2Cl)C(=O)C1=O (single isomer, unassigned) in the records? > 128 µg/mL
